Tested Target: α-Glucosidase (yeast) (Saccharomyces cerevisiae, UniProt P53341)
Sequence (P53341 whole entry): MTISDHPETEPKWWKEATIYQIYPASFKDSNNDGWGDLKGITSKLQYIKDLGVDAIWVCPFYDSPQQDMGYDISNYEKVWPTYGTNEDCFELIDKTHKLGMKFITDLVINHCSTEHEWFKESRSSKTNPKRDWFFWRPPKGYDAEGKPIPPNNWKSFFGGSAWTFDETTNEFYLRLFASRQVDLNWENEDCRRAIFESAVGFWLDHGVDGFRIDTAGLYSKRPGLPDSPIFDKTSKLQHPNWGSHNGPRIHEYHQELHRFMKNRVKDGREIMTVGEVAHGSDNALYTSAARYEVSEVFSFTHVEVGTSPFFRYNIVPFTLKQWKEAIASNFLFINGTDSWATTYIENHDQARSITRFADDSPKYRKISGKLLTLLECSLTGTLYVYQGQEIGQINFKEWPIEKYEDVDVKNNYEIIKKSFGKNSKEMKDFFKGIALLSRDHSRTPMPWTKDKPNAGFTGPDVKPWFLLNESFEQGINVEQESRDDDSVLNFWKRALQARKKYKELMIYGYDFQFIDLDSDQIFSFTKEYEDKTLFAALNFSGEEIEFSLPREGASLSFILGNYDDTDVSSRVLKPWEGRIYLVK
Endpoint Label: pIC50
Numbers only, as −log10 of the molar value.

Output measured pIC50 for this item: OCCN1C[C@H](O)[C@@H](O)[C@H](O)[C@H]1CO [Miglitol, miglitol, reference compound] 4.15

* * *

Tested Target: β-Glucosidase (almond)
Method: Glycosidase inhibition: β-glucosidase (almond)
Endpoint Label: IC50

Output measured IC50 for this item: OCCN1C[C@H](O)[C@@H](O)[C@H](O)[C@H]1CO [Miglitol, miglitol, reference compound] > 1000 µM

* * *

Tested Target: β-Glucronidase (E.coli) (Escherichia coli, UniProt P05804)
Sequence (P05804 whole entry): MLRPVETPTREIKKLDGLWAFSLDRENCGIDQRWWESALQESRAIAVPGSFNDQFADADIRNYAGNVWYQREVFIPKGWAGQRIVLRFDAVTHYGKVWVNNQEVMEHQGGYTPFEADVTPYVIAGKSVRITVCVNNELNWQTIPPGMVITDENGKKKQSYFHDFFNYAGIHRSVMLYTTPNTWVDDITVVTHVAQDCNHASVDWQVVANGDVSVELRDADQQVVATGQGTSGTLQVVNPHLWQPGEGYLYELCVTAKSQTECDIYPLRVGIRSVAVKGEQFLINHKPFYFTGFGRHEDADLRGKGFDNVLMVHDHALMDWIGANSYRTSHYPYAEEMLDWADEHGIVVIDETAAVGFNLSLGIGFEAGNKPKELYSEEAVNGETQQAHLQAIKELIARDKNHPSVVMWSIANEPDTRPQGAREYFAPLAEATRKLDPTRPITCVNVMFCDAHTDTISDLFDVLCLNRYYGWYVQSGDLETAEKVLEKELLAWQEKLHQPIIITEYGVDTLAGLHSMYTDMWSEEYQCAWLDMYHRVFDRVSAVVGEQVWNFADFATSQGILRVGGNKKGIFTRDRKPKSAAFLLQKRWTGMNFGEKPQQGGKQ
pIC50: −log10 of the molar value.
Endpoint Label: pIC50

Please tell me the measured pIC50 for OCCN1C[C@H](O)[C@@H](O)[C@H](O)[C@H]1CO [Miglitol, miglitol, reference compound] ; system: β-Glucronidase (E.coli) (Escherichia coli, UniProt P05804). < 3.00

Entry source: paper PMC6631223
